Target of assay: human GPR17 short isoform (Homo sapiens, UniProt Q13304)
Sequence (Q13304 29-367): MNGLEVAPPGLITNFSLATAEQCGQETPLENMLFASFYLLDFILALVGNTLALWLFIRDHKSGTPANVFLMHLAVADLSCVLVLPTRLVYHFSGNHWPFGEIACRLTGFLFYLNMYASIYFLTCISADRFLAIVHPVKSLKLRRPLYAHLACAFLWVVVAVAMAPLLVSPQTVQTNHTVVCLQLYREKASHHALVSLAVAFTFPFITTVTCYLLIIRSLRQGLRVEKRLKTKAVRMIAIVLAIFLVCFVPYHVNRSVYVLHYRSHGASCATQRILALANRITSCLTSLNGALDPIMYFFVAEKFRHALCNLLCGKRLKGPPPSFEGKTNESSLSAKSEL
Assay remarks: GPR17 cAMP assay (hGPR17 cAMP)
Cond: CHO-K1 cells stably expressing human GPR17 short isoform; antagonist mode vs EC80 of MDL29,951; forskolin 15 μM; TR-FRET cAMP
pIC50: −log10 of the molar value.
Readout label: pIC50

Answered cases to consult:
| Query smiles | pIC50 |
| --- | --- |
| COc1nc(OCCF)ncc1NS(=O)(=O)c1c[nH]c2cc(Cl)ccc12 | 6.14 |
| CCCc1ncc(NS(=O)(=O)c2c[nH]c3cc(Cl)ccc23)c(OC)n1 | 6.11 |
| COc1nc(OCC(F)F)ncc1NS(=O)(=O)c1c[nH]c2cc(Cl)ccc12 | 6.92 |
| O=S(=O)(Nc1cnc(OCC(F)F)nc1OC(F)F)c1c[nH]c2cc(Cl)ccc12 | 6.76 |
| CCc1ncc(NS(=O)(=O)c2c[nH]c3cc(Cl)ccc23)c(OC)n1 | 6.20 |
| COc1nc(OC(F)F)ncc1NS(=O)(=O)c1c[nH]c2cc(Cl)ccc12 | 6.80 |
| COc1nc(OCC(F)F)ncc1NS(=O)(=O)c1c[nH]c2cc(Br)ccc12 | 7.28 |
| COc1nc(OCC(F)F)ncc1NS(=O)(=O)c1c[nH]c2nc(Br)ccc12 | 6.78 |

[P] COc1nc(NS(=O)(=O)c2c[nH]c3cc(Cl)ccc23)nnc1CC(F)F
[Q] COc1nc(OCC(F)F)ncc1NS(=O)(=O)c1c[nH]c2cc(C(F)(F)F)ccc12
In: Kindly identify the item with the lower pIC50 figure among these two: P and Q # reply format: chosen label
Out: P
(P: 6.04, Q: 6.46)
